tested on: FXR:RXRa (NR concentration 270 nM, RXRa partner concentration 90 nM); assay: PBM binding z-score (relative to random genomic background probes); higher = stronger binding; sequences stand for … in GC…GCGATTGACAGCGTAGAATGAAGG
Given measured PBM binding z-score, output rule met if it is greater than or equal to 1 and rule not met if not.

Kindly determine if PBM binding z-score recorded for `TCGAGTAGGTTAGGGGCACTCAGAATGGCGTCGA` is above or exactly 1. rule not met

Please indicate if the recorded PBM binding z-score for `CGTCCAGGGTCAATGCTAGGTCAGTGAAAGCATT` meets or exceeds 1. rule met

I'd appreciate it if you could say whether `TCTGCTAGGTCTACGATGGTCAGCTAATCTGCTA` has PBM binding z-score at least equal to 1. rule not met

Threshold query (PBM binding z-score >= 1) on `ATCGAAAGGTCGAGGTGAGTATAGAGAAAGGGAA` rule met

Please check the record `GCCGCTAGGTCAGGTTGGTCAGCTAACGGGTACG` and state if its PBM binding z-score is at or above 1. rule met

Exam item: decide whether the reported PBM binding z-score for `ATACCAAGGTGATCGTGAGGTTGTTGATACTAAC` is at least 1. rule not met

Answer whether PBM binding z-score of `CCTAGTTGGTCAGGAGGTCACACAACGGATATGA` is greater than or equal to 1. rule met

Identify whether the reported PBM binding z-score of the following sequence is 1 or greater: `AGAACGAGGGCAATGAGTTGATAGCTCGGGTGGC` rule not met

Entry `AGATGTAGGTTAGCTGGGGTCATTCAGACTAGGC` : is its PBM binding z-score no less than 1? rule met

Could you please find out whether `TCAGAGAGGTGAAGGTAACTCAGGTACGCAGTCG` has PBM binding z-score that meets 1 or exceeds it? rule met

Would you say `GCTTGTAGATGAAGGTTAAGAAAGACTAAGCTAA` shows PBM binding z-score at minimum 1? rule not met

Is it the case that `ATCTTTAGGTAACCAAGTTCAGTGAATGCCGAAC` has PBM binding z-score reaching or exceeding 1? rule not met

Quick check, PBM binding z-score >= 1? `GTACCAAGGTGAATAGGTCGATGATGAGTAGGCG` rule not met

Is PBM binding z-score for `CGAACTAGGTCAGAACAGGACTGTGAAGGATGAT` at or above 1? rule not met

Please indicate if the recorded PBM binding z-score for `TCTTGTAGATCAGCAGGATAAGAAAGCTGGCCAA` meets or exceeds 1. rule not met

Given `TGTCAAAGTTCAAAGGTAACGTATGTATCCACAC` , state whether its PBM binding z-score is at least 1. rule met

Does the reported PBM binding z-score for `GCTGCTTGGTCAGGTTGGTCAGCTAACGGGTACG` fall at or above the 1 mark? rule not met

Please check the record `AGAACGAGGGCAATTAGTTGATAGCACGGGTGGC` and state if its PBM binding z-score is at or above 1. rule not met

Decide: PBM binding z-score of `CAAACTCGGTCAAGAGGTCAAAGTCCGCTTCCCG` >= 1? rule met

Is it the case that `CGCACTAGGTCAGAACAGGACAGTGAAGGATGAT` has PBM binding z-score reaching or exceeding 1? rule met

Has `CTCGAAAGGTCGTGCTCAGGTGTGTATACCAAAC` a recorded PBM binding z-score greater than or equal to 1? rule met

Does PBM binding z-score meet or surpass 1 for `CGTCCAAGGTCATAGGAGGCCAGTGAAGACAGAT` ? rule met

Does the reported PBM binding z-score for `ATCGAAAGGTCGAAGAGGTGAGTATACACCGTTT` fall at or above the 1 mark? rule met

Given the entry `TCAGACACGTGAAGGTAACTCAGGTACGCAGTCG` , answer whether its PBM binding z-score meets or surpasses 1. rule not met

Is the recorded value of PBM binding z-score equal to or greater than 1 for this sequence? `CAAACTTGGTCAAAGGTCAAAGTCGAGCCAACCA` rule met

// inclusive: PBM binding z-score at least 1? input: `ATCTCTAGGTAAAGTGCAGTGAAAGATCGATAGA` rule not met

Is PBM binding z-score for `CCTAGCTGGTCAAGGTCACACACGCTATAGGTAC` at or above 1? rule met

Is reported PBM binding z-score greater than or equal to 1 here: `CCTACTGGGCCAAGTTCATTGATCAGTCAAAGCA` rule not met

hey, is PBM binding z-score for this one >= 1? `TCGAGTAGGTGAGGGGCATTCAGAATGGCGTCGA` rule not met

Threshold query (PBM binding z-score >= 1) on `TCTTGTAGATCAACAGGAGGGTAAGAAAGATCGA` rule not met

Hi team, for `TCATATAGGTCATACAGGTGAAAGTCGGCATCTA` , is the recorded PBM binding z-score at or above 1? rule met

Say whether `CCTTACGGGGCACGAGGTTATAGCACGACGAGCG` shows PBM binding z-score of 1 or more. rule not met

Is PBM binding z-score at least 1? Consider `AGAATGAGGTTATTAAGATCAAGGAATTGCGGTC` rule met

Is PBM binding z-score at least 1? Consider `TGTCAAAGTTCAAAGGTAACCTAAGTATCCACAC` rule met

Exam item: decide whether the reported PBM binding z-score for `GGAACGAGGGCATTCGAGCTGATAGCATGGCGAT` is at least 1. rule not met

API: above_or_equal(metric=PBM binding z-score, cutoff=1) for item `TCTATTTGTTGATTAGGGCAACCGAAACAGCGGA` rule not met

Given `GCTAGCAGGCCATTTGGGTCCCTCAATGACGGGC` , state whether its PBM binding z-score is at least 1. rule not met

State whether the measured PBM binding z-score reaches 1, counting equality as reaching it, for `GTACCAAGGTGAACAGGTCGTTGATGAGTAGGCG` rule not met

# check: PBM binding z-score of `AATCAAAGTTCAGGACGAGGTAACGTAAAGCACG` is greater than or equal to 1 rule met

Item `CCTACTGGGCCACGAAAGTTCATTGATTCAGTGA` with PBM binding z-score of 1 or above? rule not met

Does the sequence `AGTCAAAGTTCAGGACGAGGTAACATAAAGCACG` have recorded PBM binding z-score that is 1 or more? rule met

Identify whether the reported PBM binding z-score of the following sequence is 1 or greater: `TCTGCTAAGTCAGTTGGTCAGCTAACGAGCTGCC` rule not met

Textbook exercise: given the entry `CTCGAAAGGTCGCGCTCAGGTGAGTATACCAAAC` , state whether its PBM binding z-score is greater than or equal to 1. rule met

Given the entry `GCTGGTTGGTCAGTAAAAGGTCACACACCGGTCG` , answer whether its PBM binding z-score meets or surpasses 1. rule met

Entry source: the supplement of paper PMC6555819
